For each record, write down the corresponding pIC50.
tested-system: H1047R PIK3CA enzyme (Homo sapiens, UniProt P42336, H1047R)
Sequence (P42336 whole entry H1047R): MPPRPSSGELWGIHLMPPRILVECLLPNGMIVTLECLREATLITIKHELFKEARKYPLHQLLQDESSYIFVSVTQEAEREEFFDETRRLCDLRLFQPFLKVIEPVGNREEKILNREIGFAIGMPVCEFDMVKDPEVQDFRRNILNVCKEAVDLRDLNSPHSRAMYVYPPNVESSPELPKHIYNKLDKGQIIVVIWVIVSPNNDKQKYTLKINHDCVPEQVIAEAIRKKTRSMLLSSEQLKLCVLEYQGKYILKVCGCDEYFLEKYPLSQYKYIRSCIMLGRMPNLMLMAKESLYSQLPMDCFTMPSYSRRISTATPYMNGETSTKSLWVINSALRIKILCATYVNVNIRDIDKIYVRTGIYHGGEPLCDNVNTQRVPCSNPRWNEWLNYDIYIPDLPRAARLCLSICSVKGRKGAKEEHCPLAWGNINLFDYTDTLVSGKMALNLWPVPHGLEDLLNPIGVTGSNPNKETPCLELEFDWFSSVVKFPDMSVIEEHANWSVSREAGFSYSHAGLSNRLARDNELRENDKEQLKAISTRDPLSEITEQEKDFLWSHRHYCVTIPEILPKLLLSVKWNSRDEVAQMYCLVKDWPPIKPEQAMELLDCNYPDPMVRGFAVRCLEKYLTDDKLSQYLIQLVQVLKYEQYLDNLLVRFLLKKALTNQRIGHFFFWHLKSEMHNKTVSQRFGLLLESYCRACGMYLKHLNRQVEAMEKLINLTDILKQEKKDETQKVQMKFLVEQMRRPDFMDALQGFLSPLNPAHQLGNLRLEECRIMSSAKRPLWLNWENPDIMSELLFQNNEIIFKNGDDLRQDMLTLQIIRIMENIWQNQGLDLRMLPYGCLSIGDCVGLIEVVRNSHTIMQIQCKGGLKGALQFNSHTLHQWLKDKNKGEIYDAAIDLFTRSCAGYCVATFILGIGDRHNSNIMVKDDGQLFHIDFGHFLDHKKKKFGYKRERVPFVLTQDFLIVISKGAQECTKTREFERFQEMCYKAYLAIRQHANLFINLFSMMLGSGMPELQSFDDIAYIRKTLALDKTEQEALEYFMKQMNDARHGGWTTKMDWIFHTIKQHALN
Sequence (P27986 whole entry partner): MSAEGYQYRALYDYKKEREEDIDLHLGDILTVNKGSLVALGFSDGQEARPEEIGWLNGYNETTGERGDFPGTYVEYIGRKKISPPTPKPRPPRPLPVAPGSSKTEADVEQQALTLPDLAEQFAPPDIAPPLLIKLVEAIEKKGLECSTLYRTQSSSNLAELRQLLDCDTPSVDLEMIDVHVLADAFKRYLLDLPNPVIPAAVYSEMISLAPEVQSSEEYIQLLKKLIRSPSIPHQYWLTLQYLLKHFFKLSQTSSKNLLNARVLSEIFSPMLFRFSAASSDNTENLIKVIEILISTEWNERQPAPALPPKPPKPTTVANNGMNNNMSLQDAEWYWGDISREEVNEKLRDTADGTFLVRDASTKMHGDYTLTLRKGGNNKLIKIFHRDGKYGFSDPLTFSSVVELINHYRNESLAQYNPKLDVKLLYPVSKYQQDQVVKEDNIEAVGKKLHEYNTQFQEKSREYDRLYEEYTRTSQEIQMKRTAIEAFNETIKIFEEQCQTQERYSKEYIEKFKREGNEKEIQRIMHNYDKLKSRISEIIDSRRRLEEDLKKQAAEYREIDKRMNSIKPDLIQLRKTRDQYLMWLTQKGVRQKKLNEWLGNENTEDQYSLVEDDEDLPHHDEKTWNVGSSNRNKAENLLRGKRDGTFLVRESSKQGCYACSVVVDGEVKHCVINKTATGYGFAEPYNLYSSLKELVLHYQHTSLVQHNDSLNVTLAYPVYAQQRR
test-description: ADP-Glo Biochemical PIK3CA Kinase Assay
pIC50: −log10 of the molar value.

Query :: For CN1CCC=C(c2cc(-c3ccc4ncnn4c3)cc3c2C(c2cc(F)ccc2Cl)NC3=O)C1 (centres unmarked) , what is its reported pIC50?
Result :: 4.00 to 5.00

Query :: For O=C(Nc1cc(Br)cc2c1C(c1cc(F)ccc1Cl)NC2=O)c1cc(F)cc(COC(F)F)c1 (centres unmarked) , what is its reported pIC50?
Result :: 4.00 to 5.00

Query :: For "NS(=O)(=O)c1cc(-c2ccc3ncnn3c2)cc2c1[C@H](c1cc(F)ccc1Cl)NC2=O" , what is its reported pIC50?
Result :: 4.00 to 5.00

Query :: For O=C1NC(c2cc(F)ccc2Cl)c2c(NC(=O)N3CCc4c3cccc4C(F)(F)F)cccc21 (centres unmarked) , what is its reported pIC50?
Result :: 5.00 to 6.00

Query :: For O=C(Nc1cc(Br)cc2c1C(c1cc(F)ccc1Cl)NC2=O)c1ccc(F)c(C(F)(F)F)c1 (centres unmarked) , what is its reported pIC50?
Result :: 6.00 to 6.30

Query :: For O=C1NC(c2cc(F)ccc2Cl)c2c1cc(-c1ccc3ncnn3c1)cc2N1CCn2cc(C(F)(F)F)nc2C1 (centres unmarked) , what is its reported pIC50?
Result :: 4.00 to 5.00

Query :: For O=C(Nc1cc(-c2ccc3ncnn3c2)cc2c1[C@@H](c1cc(F)cc(F)c1Cl)NC2=O)c1cc(F)cc(C(F)(F)F)c1 (stereo in doubt) , what is its reported pIC50?
Result :: 4.00 to 5.00

Query :: For Cc1ccccc1C1NC(=O)Oc2cccc(Br)c21 (centres unmarked) , what is its reported pIC50?
Result :: 4.00 to 5.00

Query :: For O=C1N[C@H](c2cc(F)ccc2Cl)c2c(NC(=O)N3C[C@@H](O)c4ccc(F)cc43)cccc21 (stereo in doubt) , what is its reported pIC50?
Result :: 5.00 to 6.00

Query :: For N#Cc1nn(C(F)F)cc1-c1cc(NC(=O)c2cc(F)cc(C(F)(F)F)c2)c2c(c1)C(=O)NC2c1cc(F)ccc1Cl (centres unmarked) , what is its reported pIC50?
Result :: ≥ 7.00

Query :: For O=C1CC(c2cc(NC(=O)c3cc(F)cc(C(F)(F)F)c3)c3c(c2)C(=O)NC3c2cc(F)ccc2Cl)CN1 (centres unmarked) , what is its reported pIC50?
Result :: ≥ 7.00

Query :: For CN(C)C(=O)c1cc(-c2ccc3ncnn3c2)cc2c1C(c1cc(F)ccc1Cl)NC2=O (centres unmarked) , what is its reported pIC50?
Result :: 4.00 to 5.00

Query :: For "O=C(Nc1cc(C2=CN3CCN=C3C=C2)cc2c1[C@@H](c1cc(F)ccc1Cl)NC2=O)c1cc(F)cc(C(F)(F)F)c1" , what is its reported pIC50?
Result :: 6.00 to 6.30

Query :: For C[C@@H](c1nn[nH]c1C(=O)Nc1cccc2c1[C@@H](c1cc(F)ccc1Cl)NC2=O)C(F)(F)F (single isomer, unassigned) , what is its reported pIC50?
Result :: 4.00 to 5.00

Cited source: patent US12581252B2
